Assay: Primary qHTS for inhibitors of La Crosse Virus (LACV) - induced cell death in SH-SY5Y cells (AID 1508616);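 note: top concentration of the series differs between compounds; 0% = infected DMSO wells and 100% = uninfected DMSO wells; higher means more rescue of cells from virus-induced death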
Conditions: SH-SY5Y LACV cytopathicity rescue, ATP luminescence, 6 d; series mostly up to 9.63 µM
Records with an inconclusive call do not appear. Calls of active or inactive are those of the source. Calls come from the whole dose curve; as a rule, active = well fitted inhibition curve with a large enough effect; inconclusive = small, poorly fitted or top-dose-only effect; inactive = no such curve, though single readings can be large or run the other way.
Measured Parameter: outcome

Example compounds with recorded outcome:
O=C(O)C1CN(CCCP(=O)(O)O)CCN1 (configuration not stated) | inactive
NCC(O)(CS(=O)(=O)O)c1ccc(Cl)cc1 (configuration not stated) | inactive
CC1CCN(CC[C@H]2CCCN2S(=O)(=O)c2cccc(O)c2)CC1 | inactive
CC(=O)C(C)=O | inactive
OC1(c2ccc(Cl)cc2)CCN(Cc2c[nH]c3ccccc23)CC1 | inactive

Problem: What does the data say about its outcome? Entry: `Nn1nnc2ccccc21`
Solution: inactive

Problem: What does the data say about its outcome? Entry: `CCCCCCC(=O)OC1CC(C)(C)NC(C)(C)C1`
Solution: inactive

====

Target: Glutathione peroxidase 1 (Homo sapiens) (UniProt P07203)
Sequence (P07203 whole entry, looked up): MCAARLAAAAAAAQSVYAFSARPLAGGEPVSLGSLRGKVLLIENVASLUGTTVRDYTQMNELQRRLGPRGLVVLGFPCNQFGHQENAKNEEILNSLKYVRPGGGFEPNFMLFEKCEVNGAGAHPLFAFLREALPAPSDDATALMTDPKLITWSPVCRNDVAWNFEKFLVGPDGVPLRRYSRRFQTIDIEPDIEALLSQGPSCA
Test: Primary qHTS Assay for Inhibitors of Recombinant Selenoprotein Glutathione Peroxidase 1 (GPX1) (AID 1845191); note: nearly all actives have a fitted effect of over 65% in size
Settings: recombinant GPX1, GR-coupled NADPH fluorescence, 15 min; series mostly up to 48.8 µM
Results filed as inconclusive are left out. The source made the active and inactive calls. The call rests on the fitted dose curve; in most records, active means well fitted inhibition curve with a large enough effect; inconclusive means small, poorly fitted or top-dose-only effect; inactive means flat fitted curve, though single readings scatter.
Return exactly one item of 1 (active), 0 (inactive)

Worked examples follow.
Cn1ccnc1 | 0
Brc1c(Br)c(Br)c2[nH]cnc2c1Br | 0
Nc1nc2[nH]c(=O)cnc2c(=O)[nH]1 | 0
CSc1nc(N)c2ncn([C@@H]3O[C@H](COP(=O)(O)OP(=O)(O)O)C(O)[C@H]3O)c2n1 (stereo not given in full) | 0
CO/N=C(\C(=O)N[C@@H]1C(=O)N2C(C(=O)O)=C(CSc3nc(=O)c(O)nn3C)CSC12)c1csc(N)n1 (stereo not given in full) | 1
CC#CCOC(=O)c1c(C)nc2sc3c(c2c1N)CCC(O)C3 (stereo not given) | 0

Problem: Returns: the outcome recorded for `N=C(N)SCCc1cnc[nH]1` in this assay.
Solution: 0

Problem: Returns: the outcome recorded for CCC1(O)CC2CN(CCc3c([nH]c4ccccc34)[C@@](C(=O)OC)(c3cc4c(cc3OC)N(C=O)C3[C@]45CCN4CC=C[C@@](CC)([C@@H](OC(C)=O)[C@]3(O)C(=O)OC)[C@H]45)C2)C1 (stereo not given in full) in this assay.
Solution: 0

Problem: Returns: the outcome recorded for `CCCCCCN(CCCCCC)C(=O)Cc1c(-c2ccc(F)cc2)[nH]c2ccccc12` in this assay.
Solution: 0

Problem: Returns: the outcome recorded for `NC(N)=[N+]1CCc2ccccc2C1` in this assay.
Solution: 0

====

Experiment: Validation qHTS assay for inhibitors of Activation Induced Cytidine Deaminase (AID): UDG Counterscreen signal (AID 1347427); note: 0% is about no effect
Settings: biochemical UDG counterscreen, fluorescence signal; series mostly up to 115 µM
Activity calls are given as the source filed them. Calls follow the shape of the dose curve; as a rule, active = well fitted curve in the direction sought with a large enough effect; inconclusive = small, poorly fitted or top-dose-only effect, or another doubt; inactive = no such curve, though single readings can be large or run the other way.
Return exactly one item of active, inactive

CC(C)(C)NCC(O)COc1cccc2[nH]c(=O)[nH]c12 (centres undefined) | inactive
NC/C=C\C(=O)O | inactive
c1ccc(C2CN3CCSC3=N2)cc1 (centres undefined) | inactive
C[C@H]1CC2C3CCC4=CC(=O)C=C[C@]4(C)[C@@]3(Cl)[C@@H](O)C[C@]2(C)[C@@]1(O)C(=O)CO (some centres undefined) | inactive

Problem: Returns: the outcome recorded for `CCN1C(=O)C=CC1=O` in this assay.
Solution: inactive

Problem: Returns: the outcome recorded for Nc1ncnc2c1nc(Br)n2C1OC2COP(=O)(O)O[C@@H]2C1O (some centres undefined) in this assay.
Solution: inactive

Problem: Returns: the outcome recorded for `C[C@H](NC(=O)/C(C#N)=C/c1ccc(O)c(O)c1)c1ccccc1` in this assay.
Solution: inactive

Problem: Returns: the outcome recorded for `CC[n+]1c(/C=C/C=C2/N(C)c3ccccc3C2(C)C)sc2ccccc21` in this assay.
Solution: inactive

Problem: Returns: the outcome recorded for `COc1ccccc1N1CCN(CCN(C(=O)c2ccc(F)cc2)c2ccccn2)CC1` in this assay.
Solution: inactive

Problem: Returns: the outcome recorded for `CC(C)NC[C@H](O)COc1ccc(CC(N)=O)cc1` in this assay.
Solution: inactive

Problem: Returns: the outcome recorded for `NCCCNCCCCNCCCN` in this assay.
Solution: inactive

====

Test: Stat Signaling Pathway (AID 446);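 note: ME-180 cervical cancer cells given 40 pM IL-6 alongside compound; SIE-controlled beta-lactamase reporter measured as 460/530 nm FRET emission ratio; % is set by controls: 0 for no effect and ±100 for the full control effect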
Conditions: ME-180 (cervical carcinoma) SIE beta-lactamase reporter, IL-6 stimulated, 5 h; at 38 µM (top of the series) unless noted
Results filed as inconclusive are left out. Active and inactive are the calls of the source. The call rests on the fitted dose curve; in most records, active means well fitted curve in either direction with a large enough effect (not every such curve was filed as active); inconclusive means small, poorly fitted or top-dose-only effect, or another doubt; inactive means flat fitted curve, though single readings scatter.
Each item that follows carries a reported activity, negative = inhibition.

N[C@@H](Cc1c[nH]c2ccccc12)C(=O)O | -9.87% (inactive)
N[C@@H](Cc1ccc(O)c(I)c1)C(=O)O | 5.15% [at 17.2 µM] (inactive)

From here, focus on the item given below.
Problem: What does the data say about its activity, negative = inhibition? Entry: `C=CCn1c(=O)c2c(nc(-c3ccc(S(=O)(=O)O)cc3)n2C)n(C)c1=O`
Solution: 20.8% (inactive)

====

Molecular target: Ubiquitin carboxyl-terminal hydrolase 1 (Homo sapiens) (UniProt O94782)
Sequence (O94782 whole entry, looked up): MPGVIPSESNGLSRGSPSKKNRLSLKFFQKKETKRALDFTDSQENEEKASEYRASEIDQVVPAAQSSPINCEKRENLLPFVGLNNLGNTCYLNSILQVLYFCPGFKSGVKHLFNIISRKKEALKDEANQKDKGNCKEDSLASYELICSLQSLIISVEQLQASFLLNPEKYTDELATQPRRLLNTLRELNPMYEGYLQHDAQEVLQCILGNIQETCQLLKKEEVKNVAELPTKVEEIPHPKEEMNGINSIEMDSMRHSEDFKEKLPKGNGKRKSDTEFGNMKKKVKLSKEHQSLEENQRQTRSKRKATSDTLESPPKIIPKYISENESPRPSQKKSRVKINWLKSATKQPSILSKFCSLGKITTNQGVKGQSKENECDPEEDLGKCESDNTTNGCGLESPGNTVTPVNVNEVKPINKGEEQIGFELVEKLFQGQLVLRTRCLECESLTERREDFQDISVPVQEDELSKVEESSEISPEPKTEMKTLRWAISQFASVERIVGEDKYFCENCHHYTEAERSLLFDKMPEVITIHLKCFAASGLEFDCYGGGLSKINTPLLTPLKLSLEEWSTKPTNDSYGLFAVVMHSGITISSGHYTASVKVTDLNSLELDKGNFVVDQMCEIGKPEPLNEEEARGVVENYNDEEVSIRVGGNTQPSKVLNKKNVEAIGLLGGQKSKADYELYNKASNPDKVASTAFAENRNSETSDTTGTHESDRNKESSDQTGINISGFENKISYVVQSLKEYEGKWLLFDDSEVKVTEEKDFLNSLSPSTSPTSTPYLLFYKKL
Assay: Inhibitors of USP1/UAF1: Pilot qHTS (AID 504865); note: nearly all actives have a fitted effect of over 35% in size
Details: purified USP1/UAF1, Ub-rhodamine cleavage fluorescence; series mostly up to 114 µM
Records with an inconclusive call do not appear. Active and inactive are the calls of the source. The call rests on the fitted dose curve; in most records, active means well fitted inhibition curve with a large enough effect; inconclusive means small, poorly fitted or top-dose-only effect; inactive means flat fitted curve, though single readings scatter.
Return exactly one item of 1 = active, 0 = inactive

C=CCn1c(=O)c2c(nc(-c3ccc(S(=O)(=O)O)cc3)n2C)n(C)c1=O | 0
CC[C@H](NC(=O)c1c(C)c(-c2ccccc2)nc2ccccc12)c1ccccc1 | 0
O[Si](CCCN1CCCCC1)(c1ccc(F)cc1)C1CCCCC1 (stereo not given) | 0

Problem: Returns: the outcome recorded for `CC(=O)N[C@@H](Cc1c[nH]c2ccccc12)C(=O)OCc1cc(C(F)(F)F)cc(C(F)(F)F)c1` in this assay.
Solution: 1

Problem: Returns: the outcome recorded for `CN(C)C(=O)/N=N/C(=O)N(C)C` in this assay.
Solution: 0

====

Biological target: ATP-dependent DNA helicase Q1 (Homo sapiens) (UniProt P46063)
Sequence (P46063 whole entry, looked up): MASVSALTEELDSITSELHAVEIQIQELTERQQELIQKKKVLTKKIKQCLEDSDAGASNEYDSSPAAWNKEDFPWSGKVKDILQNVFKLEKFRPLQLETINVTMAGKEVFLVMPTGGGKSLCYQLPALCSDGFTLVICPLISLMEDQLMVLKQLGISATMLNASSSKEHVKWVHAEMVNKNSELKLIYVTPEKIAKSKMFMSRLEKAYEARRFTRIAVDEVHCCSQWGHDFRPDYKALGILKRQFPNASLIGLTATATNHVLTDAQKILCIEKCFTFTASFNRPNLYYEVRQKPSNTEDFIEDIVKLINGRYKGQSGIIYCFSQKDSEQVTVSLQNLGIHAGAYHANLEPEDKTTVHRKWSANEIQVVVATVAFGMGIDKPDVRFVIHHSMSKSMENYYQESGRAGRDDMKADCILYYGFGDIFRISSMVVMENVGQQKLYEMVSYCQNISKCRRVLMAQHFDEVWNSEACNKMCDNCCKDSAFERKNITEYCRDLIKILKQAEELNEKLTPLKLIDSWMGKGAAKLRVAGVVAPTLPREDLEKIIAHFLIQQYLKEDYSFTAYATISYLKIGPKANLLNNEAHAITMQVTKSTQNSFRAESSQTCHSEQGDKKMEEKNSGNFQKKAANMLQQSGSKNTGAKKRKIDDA
Assay: qHTS Validation Assay for Inhibitors of RecQ-Like Dna Helicase 1 (RECQ1) (AID 2353)
Details: recombinant RECQ1 helicase DNA unwinding assay; series mostly up to 25.6 µM
The source made the active and inactive calls. Calls come from the whole dose curve; as a rule, active = well fitted inhibition curve with a large enough effect; inconclusive = small, poorly fitted or top-dose-only effect; inactive = flat fitted curve, though single readings scatter.
Return exactly one item of active, inactive

Worked examples follow.
CCCC[C@@]1(C2CCCC2)Cc2cc(OCC(=O)O)c(Cl)c(Cl)c2C1=O | inactive
CCCc1c(-c2ccc(O)cc2)nn(-c2ccc(O)cc2)c1-c1ccc(O)cc1 | inactive
NC/C=C\C(=O)O | inactive
O=C(O)/C=C/c1ccc(O)c(O)c1 | inactive
Nc1ccc(-c2nc3ccc(-c4nc5ccc(N)cc5[nH]4)cc3[nH]2)cc1 | active

For the next question, use this molecule.
Problem: Returns: the outcome recorded for `O=C1Nc2ccc(I)cc2/C1=C/c1cc(Br)c(O)c(Br)c1` in this assay.
Solution: inactive

====

System: Zika virus NS2B-NS3 protease
Test: Primary screen GU AMC qHTS for Zika virus inhibitors (AID 1347154); note: nearly all actives have a fitted effect of over 70% in size
Details: Zika NS2B-NS3 unlinked protease, AMC fluorogenic substrate; series mostly up to 54.1 µM
From the text: Avindra Nath, Ph.D., National Institute of Neurological Disorders and Stroke (NINDS), Bethesda, MD Radhakrishnan Padmanabhan, Ph.D., Georgetown University (GU), Washington D.C. Zika Virus causes congenital defects, including microcephaly and is associated with Guillain-Barre syndrome, eningoencephalitis and myelitis in infected adult. […]
Inconclusive results are not listed. Activity calls are given as the source filed them. Calls come from the whole dose curve; as a rule, active = well fitted inhibition curve with a large enough effect; inconclusive = small, poorly fitted or top-dose-only effect; inactive = flat fitted curve, though single readings scatter.
Return exactly one item of class 1 for active, class 0 for inactive

Problem: Returns: the outcome recorded for `CC1=C(/C=C/C(C)=C/C=C/C(C)=C\C(=O)O)C(C)(C)CCC1` in this assay.
Solution: class 0

Problem: Returns: the outcome recorded for `Cn1c(=O)c2[nH]c(-c3ccc(S(=O)(=O)O)cc3)nc2n(C)c1=O` in this assay.
Solution: class 1

Problem: Returns: the outcome recorded for `Nc1nc2c(cnn2CCc2ccccc2)c2nc(-c3ccco3)nn12` in this assay.
Solution: class 0

Problem: Returns: the outcome recorded for `CCc1ccc2c(-c3cccc(Cl)c3)nc(=O)n(CC)c2n1` in this assay.
Solution: class 0

Problem: Returns: the outcome recorded for CCCN(CCc1ccccc1)C1CCc2c(O)cccc2C1 (centres undefined) in this assay.
Solution: class 0

Problem: Returns: the outcome recorded for `COc1ccccc1N1CCN(CCCCN2C(=O)c3ccccc3C2=O)CC1` in this assay.
Solution: class 0

Problem: Returns: the outcome recorded for `CCCCCCN(CCCCCC)C(=O)Cc1c(-c2ccc(F)cc2)[nH]c2ccccc12` in this assay.
Solution: class 0

Problem: Returns: the outcome recorded for `Cc1nc(N=Nc2ccc(S(=O)(=O)O)cc2S(=O)(=O)O)c(COP(=O)(O)O)c(C=O)c1O` in this assay.
Solution: class 0

Problem: Returns: the outcome recorded for `O=C1Cc2c([nH]c3ccc(Br)cc23)-c2ccccc2N1` in this assay.
Solution: class 0

Problem: Returns: the outcome recorded for `COC(=O)[C@H](NC(=O)c1cc(-c2ccccc2)nc2ccccc12)c1ccccc1` in this assay.
Solution: class 0

Problem: Returns: the outcome recorded for `CCN(CC)CCCCCCCCOC(=O)c1cc(OC)c(OC)c(OC)c1` in this assay.
Solution: class 0

Problem: Returns: the outcome recorded for `Nc1nc2ccc(Cl)cc2c2nc(-c3ccco3)nn12` in this assay.
Solution: class 0

Problem: Returns: the outcome recorded for `N[C@H](C(=O)O)[C@H]1C[C@@H]1C(=O)O` in this assay.
Solution: class 0

Problem: Returns: the outcome recorded for `CC(=O)NNC(=O)N1Cc2ccccc2Oc2ccc(Cl)cc21` in this assay.
Solution: class 0

Problem: Returns: the outcome recorded for NC1(C(=O)O)CCc2cc(C(=O)O)ccc21 (centres undefined) in this assay.
Solution: class 0

Problem: Returns: the outcome recorded for `O=[N+]([O-])c1cccc2c(Br)[nH]nc12` in this assay.
Solution: class 0

Problem: Returns: the outcome recorded for Oc1cc2c(cc1O)C(c1ccccc1)CNCC2 (centres undefined) in this assay.
Solution: class 0

Problem: Returns: the outcome recorded for `CCCCCCCCCCC(C)(C)C(=O)Nc1c(OC)cc(OC)cc1OC` in this assay.
Solution: class 0

Problem: Returns: the outcome recorded for `COc1cc(CC(=O)O)ccc1O` in this assay.
Solution: class 0

Problem: Returns: the outcome recorded for `CNc1cc(NS(=O)(=O)c2ccc(N)cc2)nc(NC)n1` in this assay.
Solution: class 0

Problem: Returns: the outcome recorded for CC(C)NCC(O)COc1ccc(CC(N)=O)cc1 (centres undefined) in this assay.
Solution: class 0

Problem: Returns: the outcome recorded for `CN1CCc2cc(Cl)c(O)cc2[C@@H](c2ccccc2)C1` in this assay.
Solution: class 0

Problem: Returns: the outcome recorded for `O=C(O)c1cccnc1C(=O)O` in this assay.
Solution: class 0

Problem: Returns: the outcome recorded for `O=C(OCCN1CCOCC1)C1(c2ccccc2)CCCCC1` in this assay.
Solution: class 0

Data origin: PubChem BioAssay (NCATS)
